Form field: IC50 (one value per entry).
system: Influenza A virus; assay: Antiviral activity against influenza A (A/Singapore/57/2009 (H1N1)) virus harboring neuraminidase H275Y mutant after 30 mins by MUNANA substrate based fluorometric assay; format: functional, organism-based
Give the number; nM is assumed, so skip it.

Observe how each entry below is paired with its result.
[[record]]
compound = "CCC(CC)[C@H](NC(C)=O)[C@@H]1[C@H](O)[C@@H](C(=O)O)C[C@H]1NC(=N)N [PERAMIVIR ANHYDROUS]"
meas_value = 122

[[record]]
compound = "C/C=C\\[C@@H]1C[C@H](C(=O)O)N[C@H]1[C@@H](NC(C)=O)[C@](C)(CCC)OC"
meas_value = 1.39

[[record]]
compound = "CO[C@@H]([C@@H]1OC(C(=O)O)=C[C@H](NC(=N)N)[C@H]1NC(C)=O)[C@H](O)CO"
meas_value = 0.87


Continue with the compound presented below.
IN: Give the reported IC50 for this compound. CC(=O)N[C@H]1[C@H]([C@H](O)[C@H](O)CO)OC(C(=O)O)=C[C@@H]1NC(=N)N
OUT: 1

###

test system: Influenza A virus; test: Antiviral activity against influenza A (A/Montana/02/2009 (H1N1)) virus harboring neuraminidase H275Y mutant after 30 mins by NA-star substrate based chemiluminescent assay; format: functional, organism-based
Form field: IC50 (one value per entry).
Give the number; nM is assumed, so skip it.

[[record]]
compound = "CO[C@@H]([C@@H]1OC(C(=O)O)=C[C@H](NC(=N)N)[C@H]1NC(C)=O)[C@H](O)CO"
measured_endpoint = "IC50"
unit_name = "nM"
meas_value = 0.34

[[record]]
compound = "CC(=O)N[C@H]1[C@H]([C@H](O)[C@H](O)CO)OC(C(=O)O)=C[C@@H]1NC(=N)N"
measured_endpoint = "IC50"
unit_name = "nM"
meas_value = 0.42

[[record]]
compound = "CCC(CC)[C@H](NC(C)=O)[C@@H]1[C@H](O)[C@@H](C(=O)O)C[C@H]1NC(=N)N [PERAMIVIR ANHYDROUS]"
measured_endpoint = "IC50"
unit_name = "nM"
meas_value = 15


Continue with the compound presented below.
IN: Give the reported IC50 for this compound. C/C=C\[C@@H]1C[C@H](C(=O)O)N[C@H]1[C@@H](NC(C)=O)[C@](C)(CCC)OC
OUT: 1

###

tested on: Influenza A virus; test: Antiviral activity against influenza A (A/North Carolina/01/2009 (H1N1)) virus harboring neuraminidase H275Y mutant after 16 to 18 hrs by fetuin substrate based colorimetric assay; assay type: functional, organism-based
MEASURED ENDPOINT: IC50 (nM)
Give the number; nM is assumed, so skip it.

Observe how each entry below is paired with its result.
[[record]]
compound = "CO[C@@H]([C@@H]1OC(C(=O)O)=C[C@H](NC(=N)N)[C@H]1NC(C)=O)[C@H](O)CO"
meas_value = 0.89

[[record]]
compound = "CC(=O)N[C@H]1[C@H]([C@H](O)[C@H](O)CO)OC(C(=O)O)=C[C@@H]1NC(=N)N"
meas_value = 1.96


IN: Give the reported IC50 for this compound. CCC(CC)[C@H](NC(C)=O)[C@@H]1[C@H](O)[C@@H](C(=O)O)C[C@H]1NC(=N)N [PERAMIVIR ANHYDROUS]
OUT: 105

IN: Give the reported IC50 for this compound. C/C=C\[C@@H]1C[C@H](C(=O)O)N[C@H]1[C@@H](NC(C)=O)[C@](C)(CCC)OC
OUT: 2.32
